# targetOfAssay: T1, HLA-DR DRB1*1101 (human)
# T1 chain 1: not shown
# T1 chain 2: not shown
# experimentNotes: radioligand inhibition, purified HLA-DR
# protocolConditions: remark: other sources report otherwise
So I've got a bunch of binders here, and I need their pIC50 values.
To interpret pIC50, take it as minus log10 of a concentration measured in moles per litre.

pIC50 reported for this binder LQRYSEDPTVPLPSE [Peptide 9019.0099] : 7.03

pIC50 reported for this binder FRELVSEFSRMARDP [Peptide 9019.0096] : 6.42

pIC50 reported for this binder SITVSASGTSPGLSA [CEA.671 peptide 9919.0143] : 5.48

pIC50 reported for this binder TEILKGGVLIQRNPQ [Her2/neu.146] : 6.16
